Assign pIC50 to each entry below.
# TARGET_OR_SYSTEM: UniProt P15144
Just so you know, pIC50 here is -log10 of the concentration in molar units; reply with that number alone.

Task: Read off the recorded pIC50 for CN(C)c1ncnc2c1ncn2[C@@H]1O[C@H](CCl)[C@@H](NC(=O)[C@@H](N)CSC(c2ccccc2)c2ccccc2)[C@H]1O
Output: 5.59

Task: Read off the recorded pIC50 for CN(C)c1ncnc2c1ncn2[C@@H]1O[C@H](CCl)[C@@H](NC(=O)[C@@H](N)CSC23CC4CC(CC(C4)C2)C3)[C@H]1O
Output: 7.08

###

# TARGET_OR_SYSTEM: Aminopeptidase N (Homo sapiens)
# Sequence (P15144 whole entry): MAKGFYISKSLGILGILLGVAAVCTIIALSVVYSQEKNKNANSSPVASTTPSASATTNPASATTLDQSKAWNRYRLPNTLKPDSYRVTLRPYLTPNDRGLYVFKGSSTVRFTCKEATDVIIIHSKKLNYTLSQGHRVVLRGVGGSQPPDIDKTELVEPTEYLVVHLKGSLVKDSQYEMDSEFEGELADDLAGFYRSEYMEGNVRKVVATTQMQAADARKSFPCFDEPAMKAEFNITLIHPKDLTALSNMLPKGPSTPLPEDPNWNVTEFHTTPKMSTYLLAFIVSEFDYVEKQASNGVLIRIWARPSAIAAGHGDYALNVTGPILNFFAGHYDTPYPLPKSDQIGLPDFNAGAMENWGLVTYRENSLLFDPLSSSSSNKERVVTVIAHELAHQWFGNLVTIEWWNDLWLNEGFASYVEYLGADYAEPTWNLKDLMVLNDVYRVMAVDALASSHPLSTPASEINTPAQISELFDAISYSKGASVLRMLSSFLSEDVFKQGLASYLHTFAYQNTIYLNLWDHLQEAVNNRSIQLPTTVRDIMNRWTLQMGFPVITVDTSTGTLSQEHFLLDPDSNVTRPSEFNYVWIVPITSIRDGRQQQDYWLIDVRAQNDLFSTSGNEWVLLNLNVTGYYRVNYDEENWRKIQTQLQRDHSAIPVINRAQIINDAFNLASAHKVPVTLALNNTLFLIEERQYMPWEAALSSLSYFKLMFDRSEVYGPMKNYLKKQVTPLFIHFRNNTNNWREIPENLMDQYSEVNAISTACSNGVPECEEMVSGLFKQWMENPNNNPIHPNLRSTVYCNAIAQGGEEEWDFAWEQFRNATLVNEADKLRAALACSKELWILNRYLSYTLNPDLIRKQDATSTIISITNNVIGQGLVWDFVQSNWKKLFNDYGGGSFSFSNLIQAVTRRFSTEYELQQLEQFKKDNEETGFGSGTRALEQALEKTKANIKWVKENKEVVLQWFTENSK
# ASSAY_PROCEDURE: Inhibition of Aminopeptidase N (unknown origin) using Ala-AMC as substrate at 10 uM incubated for 30 mins by SpectraMax microplate reader analysis relative to control
PROPERTY: inhibition (%)
Give the value in % but do not write % after it.

Task: Read off the recorded inhibition for CN(C)c1ncnc2c1ncn2[C@@H]1O[C@H](CCl)[C@@H](NC(=O)[C@@H](N)CSC(c2ccccc2)c2ccccc2)[C@H]1O
Output: 55.8

Task: Read off the recorded inhibition for O=C(O)CNC(=O)C(CS)Cc1ccccc1 (stereo not drawn)
Output: 0

Task: Read off the recorded inhibition for CN(C)c1ncnc2c1ncn2[C@@H]1O[C@H](CCl)[C@@H](NC(=O)[C@@H](N)CSC23CC4CC(CC(C4)C2)C3)[C@H]1O
Output: 99.1

Task: Read off the recorded inhibition for CN(C)c1ncnc2c1ncn2[C@@H]1O[C@H](CO)[C@@H](NC(=O)[C@@H](N)CSC23CC4CC(CC(C4)C2)C3)[C@H]1O
Output: 99.1

Task: Read off the recorded inhibition for CN(C)c1ncnc2c1ncn2[C@@H]1O[C@H](CCl)[C@@H](NC(=O)[C@H](CSC23CC4CC(CC(C4)C2)C3)NC(=O)OC(C)(C)C)[C@H]1O
Output: 0

Task: Read off the recorded inhibition for CN(C)c1ncnc2c1ncn2[C@@H]1O[C@H](CCl)[C@@H](NC(=O)[C@H](N)CSC(c2ccccc2)c2ccccc2)[C@H]1O
Output: 38.9

Task: Read off the recorded inhibition for CN(C)c1ncnc2c1ncn2[C@@H]1O[C@H](CCl)[C@@H](NC(=O)[C@H](CSC(c2ccccc2)c2ccccc2)NC(=O)OC(C)(C)C)[C@H]1O
Output: 4.6

Task: Read off the recorded inhibition for CN(C)c1ncnc2c1ncn2[C@@H]1O[C@H](CCl)[C@@H](NC(=O)[C@@H](CSC(c2ccccc2)c2ccccc2)NC(=O)OC(C)(C)C)[C@H]1O
Output: 0

###

PROPERTY: pIC50
Just so you know, pIC50 here is -log10 of the concentration in molar units; reply with that number alone.

Task: Give pIC50 for this entry on UniProtKB P55786: O=C(O)CNC(=O)C(CS)Cc1ccccc1 (centres undefined)
Sequence (P55786 whole entry): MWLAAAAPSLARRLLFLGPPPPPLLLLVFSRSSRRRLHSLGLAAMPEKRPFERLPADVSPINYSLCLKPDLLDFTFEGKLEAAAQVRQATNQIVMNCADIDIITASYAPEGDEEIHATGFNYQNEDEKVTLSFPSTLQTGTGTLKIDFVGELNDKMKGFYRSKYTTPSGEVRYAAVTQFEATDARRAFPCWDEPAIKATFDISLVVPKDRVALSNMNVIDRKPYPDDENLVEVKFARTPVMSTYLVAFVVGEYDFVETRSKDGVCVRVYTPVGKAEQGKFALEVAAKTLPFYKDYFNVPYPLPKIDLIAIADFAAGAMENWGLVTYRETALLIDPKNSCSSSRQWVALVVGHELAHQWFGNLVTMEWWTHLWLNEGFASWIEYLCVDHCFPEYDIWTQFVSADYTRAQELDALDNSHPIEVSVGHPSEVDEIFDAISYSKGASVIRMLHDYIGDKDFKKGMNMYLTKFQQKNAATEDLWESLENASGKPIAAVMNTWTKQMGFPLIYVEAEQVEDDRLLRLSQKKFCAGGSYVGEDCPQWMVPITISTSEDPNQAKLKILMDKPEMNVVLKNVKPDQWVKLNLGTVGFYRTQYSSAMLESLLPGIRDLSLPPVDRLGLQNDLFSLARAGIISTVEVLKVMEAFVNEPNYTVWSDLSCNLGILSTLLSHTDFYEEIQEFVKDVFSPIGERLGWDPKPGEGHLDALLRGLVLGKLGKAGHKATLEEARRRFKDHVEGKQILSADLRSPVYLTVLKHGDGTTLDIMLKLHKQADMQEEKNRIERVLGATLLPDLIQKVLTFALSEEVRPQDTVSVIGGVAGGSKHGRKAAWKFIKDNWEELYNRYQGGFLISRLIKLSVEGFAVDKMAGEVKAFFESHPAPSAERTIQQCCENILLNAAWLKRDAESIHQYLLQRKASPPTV
Output: 4.24

Task: Give pIC50 for this entry on UniProtKB P55786: CN(C)c1ncnc2c1ncn2[C@@H]1O[C@H](CCl)[C@@H](NC(=O)[C@@H](N)CSC23CC4CC(CC(C4)C2)C3)[C@H]1O
Output: 8.30

Task: Give pIC50 for this entry on UniProtKB P55786: CN(C)c1ncnc2c1ncn2[C@@H]1O[C@H](CO)[C@@H](NC(=O)[C@@H](N)CSC(c2ccccc2)c2ccccc2)[C@H]1O
Output: 8.15

Task: Give pIC50 for this entry on UniProtKB P55786: CN(C)c1ncnc2c1ncn2[C@@H]1O[C@H](CCl)[C@@H](NC(=O)[C@@H](N)CSC(c2ccccc2)c2ccccc2)[C@H]1O
Output: 8.15
